Test system: 786-0
Assay: Growth inhibition of human 786-0 cells at 10 uM after 48 hrs by coulter counter analysis
Format: functional
Conditions: 786-0, 48 h, read-out: GI
Exercise: for every item that follows, state its recorded inhibition of growth at 10 µM.

Solved entries:
• CCOC(=O)c1sc(NC(=O)C(C)N(CC)CC)nc1C (configuration not stated) = < 10%
• Cc1cnc(NC(=O)CCN2CCN(c3ccccc3)CC2)s1 = < 10%
• CCOC(=O)c1sc(NC(=O)C(C)N2CCOCC2)nc1C (configuration not stated) = < 10%

Could I get inhibition of growth at 10 µM for every one of these entries?
1. CCOC(=O)c1sc(NC(=O)CCN2CCOCC2)nc1C
2. CCOC(=O)c1sc(NC(=O)CCN2CCN(c3ccccc3)CC2)nc1C
3. O=C(CCCl)Nc1nc(-c2ccccc2)cs1
4. Cc1cnc(NC(=O)CN2CCN(c3ccccc3)CC2)s1

Result string:
1. < 10%
2. < 10%
3. 36.7%
4. < 10%

Could I get inhibition of growth at 10 µM for every one of these entries?
1. CCOC(=O)c1sc(NC(=O)CCN2CCN(C)CC2)nc1C
2. Cc1csc(NC(=O)C(C)N2CCN(C)CC2)n1 (configuration not stated)

Result string:
1. < 10%
2. < 10%

* * *

System: HOP-62
Assay: Growth inhibition of human HOP62 cells at 10 uM after 48 hrs by coulter counter analysis
Format: functional
Settings: HOP-62, 48 h, read-out: GI
endpoint: inhibition of growth at 10 µM

Solved entries:
• O=C(CCCl)Nc1nc(-c2ccccc2)cs1 = 51.4%
• Cc1cnc(NC(=O)CN2CCN(c3ccccc3)CC2)s1 = < 10%
• CCOC(=O)c1sc(NC(=O)C(C)N2CCN(C)CC2)nc1C (stereo not drawn) = < 10%
• CCOC(=O)c1sc(NC(=O)CN(C)C)nc1C = < 10%
• CCOC(=O)c1sc(NC(=O)CCN2CCOCC2)nc1C = < 10%

Could I get inhibition of growth at 10 µM for every one of these entries?
1. Cc1csc(NC(=O)C(C)N2CCN(c3ccccc3)CC2)n1 (stereo not drawn)
2. CCOC(=O)c1sc(NC(=O)CCN2CCN(c3ccccc3)CC2)nc1C
3. O=C(CN1CCN(c2ccccc2)CC1)Nc1nc(-c2ccccc2)cs1
4. CC(C(=O)Nc1nccs1)N1CCN(C)CC1 (stereo not drawn)
5. CCOC(=O)c1sc(NC(=O)C(C)N2CCOCC2)nc1C (stereo not drawn)
6. CN1CCN(CCC(=O)Nc2nc(-c3ccccc3)cs2)CC1

Result string:
["< 10%", "< 10%", "< 10%", "< 10%", "< 10%", "14.5%"]

Could I get inhibition of growth at 10 µM for every one of these entries?
1. CC(C(=O)Nc1nccs1)N1CCN(c2ccccc2)CC1 (stereo not drawn)
2. Cc1cnc(NC(=O)CN2CCN(C)CC2)s1

Result string:
1: < 10%; 2: < 10%

* * *

System: T47D
Experiment: Growth inhibition of human T47D cells at 10 uM after 48 hrs by coulter counter analysis
Type: functional
Details: read-out: GI
endpoint: inhibition of growth at 10 µM

Solved entries:
• O=C(CN1CCN(c2ccccc2)CC1)Nc1nc(-c2ccccc2)cs1 = 29.7%
• CCOC(=O)c1sc(NC(=O)CCN2CCOCC2)nc1C = < 10%
• CCOC(=O)c1sc(NC(=O)C(C)N2CCN(C)CC2)nc1C (configuration not stated) = < 10%
• CC(C(=O)Nc1nccs1)N1CCN(c2ccccc2)CC1 (configuration not stated) = < 10%

Could I get inhibition of growth at 10 µM for every one of these entries?
1. Cc1cnc(NC(=O)CN2CCN(c3ccccc3)CC2)s1
2. CCOC(=O)c1sc(NC(=O)C(C)N(CC)CC)nc1C (configuration not stated)
3. O=C(CCN1CCN(c2ccccc2)CC1)Nc1nc(-c2ccccc2)cs1
4. O=C(CCCl)Nc1nc(-c2ccccc2)cs1
5. CC(C(=O)Nc1nccs1)N1CCN(C)CC1 (configuration not stated)
6. CCOC(=O)c1sc(NC(=O)C(C)N2CCOCC2)nc1C (configuration not stated)
7. Cc1csc(NC(=O)C(C)N2CCN(C)CC2)n1 (configuration not stated)

Result string:
< 10%
< 10%
20.4%
55.2%
< 10%
< 10%
< 10%

Item: Cc1cnc(NC(=O)CN2CCN(C)CC2)s1 | inhibition of growth at 10 µM: < 10%
